target-entity: T1, human neonatal Fc receptor (hFcRn) (human, UniProt P55899 24-290; P61769 21-119)
T1 construct: Biotinylated in the ELISA, Octet and yeast assays; also called human FcRn; huFcRn
T1 sequence (P55899 24-290 limits assumed, chain 1 of 2): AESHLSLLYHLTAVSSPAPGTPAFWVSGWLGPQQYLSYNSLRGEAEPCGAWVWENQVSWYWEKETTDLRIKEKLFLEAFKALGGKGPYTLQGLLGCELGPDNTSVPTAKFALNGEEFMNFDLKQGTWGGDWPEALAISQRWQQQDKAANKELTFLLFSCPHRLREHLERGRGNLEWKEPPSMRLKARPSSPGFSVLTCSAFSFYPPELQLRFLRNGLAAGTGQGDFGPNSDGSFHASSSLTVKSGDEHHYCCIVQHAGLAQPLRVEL
T1 sequence (P61769 21-119 limits assumed, chain 2 of 2): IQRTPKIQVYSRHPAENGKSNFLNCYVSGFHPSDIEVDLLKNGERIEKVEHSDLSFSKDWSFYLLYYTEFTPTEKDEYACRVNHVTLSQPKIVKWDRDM
test: phage ELISA pH 7.4;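 note: higher score means stronger binding and above about 3 to 5 exceeds background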
Kindly apply the following: Satisfied if ELISA score is less than 0.6, Not satisfied in every other case.

| binder | category-label |
| --- | --- |
| L6B isolate with insertion SEQ ID NO: 469 (other) EPKSCDKTHTCPPCPAPELLGGPSVFLFPPKPKDTLMISRTPEVTCVVVDVSHEDPEVKFNWYVDGVEVHNAKTKPREEQYNSTYRVVSVLTVLHQDWLNGKEYKCKVSNKALPAPIEKTISKAKGQPREPQVYTLPPSRDELGGCEMMKNKSGCGGTKNQVSLTCLVKGFYPSDIAVEWESNGQPENNYKTTPPVLDSDGSFFLYSKLTVDKSRWQQGNVFSCSVMHEALHNHYTQKSLSLSPGK | Satisfied |
| L5 isolate with insertion SEQ ID NO: 405 (other) EPKSCDKTHTCPPCPAPELLGGPSVFLFPPKPKDTLMISRTPEVTCVVVDVSHEDPEVKFNWYVDGVEVHNAKTKPREEQYNSTYRVVSVLTVLHQDWLNGKEYKCKVSNKALPAPIEKTISKAKGQPREPQVYTLPPSRDELTKNQVSLTCLVKGFYPSDIAVEWESNGGCQHHIMQCGGGQPENNYKTTPPVLDSDGSFFLYSKLTVDKSRWQQGNVFSCSVMHEALHNHYTQKSLSLSPGK | Satisfied |
| L5 isolate with insertion SEQ ID NO: 403 (other) EPKSCDKTHTCPPCPAPELLGGPSVFLFPPKPKDTLMISRTPEVTCVVVDVSHEDPEVKFNWYVDGVEVHNAKTKPREEQYNSTYRVVSVLTVLHQDWLNGKEYKCKVSNKALPAPIEKTISKAKGQPREPQVYTLPPSRDELTKNQVSLTCLVKGFYPSDIAVEWESNGGCPANWGTCGGGQPENNYKTTPPVLDSDGSFFLYSKLTVDKSRWQQGNVFSCSVMHEALHNHYTQKSLSLSPGK | Satisfied |
| L5 isolate with insertion SEQ ID NO: 487 (other) EPKSCDKTHTCPPCPAPELLGGPSVFLFPPKPKDTLMISRTPEVTCVVVDVSHEDPEVKFNWYVDGVEVHNAKTKPREEQYNSTYRVVSVLTVLHQDWLNGKEYKCKVSNKALPAPIEKTISKAKGQPREPQVYTLPPSRDELTKNQVSLTCLVKGFYPSDIAVEWESNGGCGIFESWCGGGQPENNYKTTPPVLDSDGSFFLYSKLTVDKSRWQQGNVFSCSVMHEALHNHYTQKSLSLSPGK | Not satisfied |
